Test: yeast display, Sf9 membrane polyspecificity reagent, FACS + sequencing; frameworks hold sequencing errors
Measured quantity: polyreactivity (PSR sort gate)

Input sequence	polyreactivity (PSR sort gate)
QVQLVESGGGLVQAGGSLRLSCAASGSTFSGYAMGWYRQAPGKERELVAAITSDGSTYYADSVKGRFTISRDNAKNTVYLQMNSLKPEDTAVYYCAVGIPYRGRQGYYGYYTYDYWGQGTQVTVSS	high polyreactivity
QVQLVESGGGLVQAGGSLRLSCAASGSNYSSNAMGWYRQATGKERELVAAISRSGVTTYYADSVKGRFTISRDNAKNTVYLQMNSLKPEDSAVYYCAAQPYSRLYGRYLGFQYKYDYWGQGTQLTVSS	low polyreactivity
QVQLVESGGGLDQAGGSLRLSCASSGRIFRYNARGWYRQAPGKERELVAAITSGTGTNYADSVKGRFTISRDNAKNTVYLQMNRLTPEETAVYYCAVDYGYWRDSMGLGVFDYWGQGTQVTVSS	low polyreactivity
QVQLVESGGGLVQAGGSLRLSCAASGRTFVSYVMGWYRQAPGKERELVAAITWRGGSTYYADSVKGRFTISRDNAKNTVYLQMNSLKPEDTAVYYCAAPSHGSTSDRYYKFYYWGQGTQVTVSS	high polyreactivity

Measured polyreactivity (PSR sort gate), `QVQLVDSGGGLVQAGGSLRLSCAASGSTFYEYAMGWYRQPPGKERELVAAITSGGSTYYADSVKGRFTISRDNAKNTVYLQMNSLKPEDTAVYYCAADPRIRRGDRSTHGYDYWGQGTQVTVSS` : low polyreactivity

The reported numbers originate from the nanobody polyreactivity screen of Harvey et al. (2022).
